# assay-name: reversal of MRP1-mediated doxorubicin resistance, pilot screen, H69AR cells, doxorubicin co-treatment (AID 601)
# applied-conditions: H69AR cells + 2 uM doxorubicin, CellTiter-Glo, 72 h; measured here: viability with 2 uM doxorubicin; at 10 µM; stronger effect = lower value
Please note: viability exactly at 90% is not fulfilled. Only values below 90% get fulfilled.

# compound, assigned-label
measured = [
    ("CC(=O)[C@@]1(O)CC[C@H]2[C@@H]3C[C@H](C)C4=CC(=O)CC[C@]4(C)[C@H]3CC[C@@]21C", "fulfilled"),
    ("O=C(Nc1ccc(Cl)c(C(F)(F)F)c1)N1CCCC(O)C1 (stereo not drawn)", "fulfilled"),
    ("COc1cccc(-c2cc(C(=O)Nc3cc(C)n(Cc4ccc(Cl)cc4)n3)no2)c1", "fulfilled"),
    ("Cc1cc(S(=O)(=O)N2CCN(c3ccccc3C)CC2)ccc1F", "fulfilled"),
    ("CCN(CC)CCCNc1oc(-c2cccc(Cl)c2)nc1C#N", "fulfilled"),
    ("CCOc1ccc(-c2nc(N)ncc2-c2ccccc2)c(O)c1", "fulfilled"),
    ("CCc1ccc(Nc2cc(=O)n(C3CCCCC3)c(=O)[nH]2)cc1", "fulfilled"),
    ("CCOC(=O)c1ccc(NC(=O)Nc2ccn(C)n2)cc1", "fulfilled"),
    ("O=C(CSc1nnc(-c2cnccn2)n1Cc1ccco1)c1ccc(Cl)cc1", "fulfilled"),
    ("Cc1cc(NC(=O)CSc2nc(CCC3CCCC3)nc3ccccc23)no1", "fulfilled"),
]

Criterion: viability strictly below 90%. Is it met by `O=C(O)c1cc2cc(F)ccc2[nH]1` ?
not fulfilled

Consider the compound `C[C@H](CCC(=O)O)[C@H]1CC[C@H]2[C@@H]3C(=O)C[C@@H]4CC(=O)CC[C@]4(C)[C@H]3CC(=O)[C@]12C` . Is its viability strictly less than 90%?
not fulfilled

Record `c1coc(CN2CN=C(Nc3nc4ccccc4s3)NC2)c1` : is its viability strictly below 90%?
not fulfilled

A record lists `O=c1nc(N2CCCC2)nc(Nc2ccccc2)[nH]1` . Is its viability below 90%?
fulfilled

State whether 90% exceeds viability recorded for `COCCn1c(=O)[nH]c2cc(C(=O)N3CCN(Cc4ccc5c(c4)OCO5)CC3)ccc2c1=O` .
not fulfilled

---

// values below are reported inhibition
# assay-name: 384-well plate pilot, post-Golgi transport modulator project, inhibition of yeast transport mutant growth (AID 636)
# applied-conditions: absorbance 615 nm, about 18 h, stronger effect = higher value
Numeric only. Scale: %

Below, 5 compounds whose answers are already recorded.
# compound, readout-unit, inhibition
records = [
    ("Cc1ccc(-c2nnc(SC(C)C#N)n2N)cc1 (stereo unspecified)", "%", -5.68),
    ("CCOC(=O)n1c(=O)oc2cc(S(=O)(=O)N3CCCCC3)ccc21", "%", -4.27),
    ("Cc1ccc(Cn2ccc(NC(=O)c3cc(-c4cccs4)on3)n2)cc1", "%", -2.6),
    ("O=C(CN1c2cccc3cccc(c23)S1(=O)=O)N1CCOCC1", "%", -3.2),
    ("CCOC(=O)C1CCCN(C(=O)c2cccs2)C1 (stereo unspecified)", "%", -6.18),
]

Turning now to a further compound:
Noted for `COc1cc(NC(=O)CSCc2cnn(-c3ccccc3)c2-n2cccc2)cc(OC)c1` : its inhibition reads -4.46

---

Catalogue of compounds with associated viability
# assay-name: reversal of MRP1-mediated doxorubicin resistance, pilot screen, H69AR cells, doxorubicin co-treatment (AID 601)
# applied-conditions: H69AR cells, CellTiter-Glo, 72 h; compound alone cytotoxicity; at 10 µM
Dear colleague, please send the value followed by its unit.

# compound, viability
records = [
    ("COCC(=O)N(C)c1nnc(-c2ccccn2)s1", "105%"),
]

viability recorded for this compound, `O=C(CN1C(=O)COc2ccccc21)NCCN1CCc2ccccc2C1` , is 92.9%

Form field viability, entry `Cc1ccc(C)c(CSc2nnc(CCN)o2)c1` : 71.2%

The compound listed as O=C(CNCC1CCCO1)Nc1ccccc1-n1cccc1 (stereo unspecified) has a reported viability of 95.7%

compound CC(C)CC(c1nnnn1C(C)(C)C)N1CCN(C2CCCC2)CC1 (stereo unspecified) , viability observed: 95.2%

`COc1ccc(C(=O)NC(=O)CSc2nnc(-c3ccco3)n2-c2ccccc2)cc1` yielded viability of 105%

Measured viability, `O=C(CN(c1ccccc1)S(=O)(=O)c1ccccc1)N1CCN(Cc2ccc3c(c2)OCO3)CC1` : 96.9%

`Cc1nc2oc3c(NCc4ccccn4)ncnc3c2c2c1COC(C)(C)C2` yielded viability of 99.2%

Measured viability of `CC(=O)NCCCCCCNC(C)=O` : 94.5%

viability in this record for `O=C(NC1CC1)c1ccc(S(=O)(=O)NCC2CCCCC2)cc1` : 102%

Briefly, viability measured for `COc1ccc(-c2ccc(-c3noc(-c4ccccc4OC)n3)c(OC)n2)cc1` : 62.9%

The recorded viability for CC1CN(C2CCCCC2)c2nc3c(c(=O)[nH]c(=O)n3C)n2C1 (stereo unspecified) is 82.2%

The compound CCC(CC)C1C(C#N)=C(N)Oc2n[nH]c(C)c21 (stereo unspecified) showed viability equal to 24.9%

Entry under test: `CCn1c(CNc2ccc(OC)cc2)nnc1SCC(=O)c1ccc(OC)cc1` . Its viability was 50.8%

Documented viability of CCOC(=O)c1cnc(-n2nc(C)cc2C)nc1N1CC(C)OC(C)C1 (stereo unspecified) : 86.1%

For this compound ( `CCN(CC)c1ccc(C(=O)n2cnc3ccccc32)cc1` ), measured viability is 15.1%

Lab note: `Nc1nonc1-c1noc(-c2ccccc2Br)n1` gave viability of 95.1%

---

The reader will find reported viability values listed item by item below.
# assay-name: growth inhibitors of H69AR lung tumor, primary screen, human, duplicate replicates (AID 580);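 further: 100% = mean luminescence of untreated wells and 0% = no signal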
# applied-conditions: H69AR lung tumor cells viability, ATP luminescence, 72 h; at 10 µM; stronger effect = lower value
Report the value in % with no unit label.

Consider the worked cases shown below.
# compound, viability, %
data = [
    ("CCC(=O)OC1(C#CCOc2ccc(OC)cc2)CCN(C)CC1", 105),
    ("O=C(c1ccccc1-c1nc(-c2ccccc2)no1)N1CCCC1", 90.9),
    ("CCCCCCC(c1c(C)n(C)n(-c2ccccc2)c1=O)c1c(C)n(C)n(-c2ccccc2)c1=O", 80.8),
]

In plain terms, `Cc1ccc(Cn2c(SCC(N)=O)nc3c2c(=O)n(C)c(=O)n3C)cc1` has a documented viability of 86.4

Just so you know, measured viability for `Cc1ccc2nc(C3CCN(CC(=O)N4CCCCCC4)CC3)[nH]c2c1` came out at 96.3

The measured viability associated with C#CC1(O)CC(C)N(C)C(C)C1 (stereo unspecified) reads 91.9

---

// reported inhibition for each item listed
# assay-name: growth suppression of yeast trafficking mutant, preliminary HTS, modulators of trafficking downstream of Golgi apparatus project, 1536-format plate, OD 615 nm (AID 637)
# applied-conditions: yeast transport mutant growth, absorbance 615 nm, 18 h; stronger effect = higher value
Output spec: scalar in %, unitless text.

# molecule, inhibition / %
measured = [
    ("CN1C(=O)c2c(sc3c2CCCC3)NC1c1ccccc1O (centres undefined)", -0.81),
    ("O=C(Nc1cccc(OCC(=O)N2CCOCC2)c1)C1CCCCC1", 0),
    ("O=C(O)CSc1ncn[nH]1", 6.73),
    ("Cc1ccccc1C(=O)NC1CCN(Cc2nnnn2CCc2ccccc2)CC1", 7.05),
]

Recorded inhibition (molecule COc1ccc2c(c1)C1(Nc3ccccc3-c3nc4ccccc4n31)C(=O)N2 (centres undefined) ): 4.19

// field: inhibition; key: COc1ccc2ccccc2c1CN1CCCC(CO)C1 (centres undefined) ; value = 0.82

// field: inhibition; key: `CC1CCN(c2oc(-c3cccc4ccccc34)nc2C#N)CC1` ; value = -7.33

# inhibition of `Cc1ccc(-c2ccc(SCC(=O)Nc3nonc3C)nn2)cc1` = -0.55

Please fill in: inhibition reported for Cn1c(SCc2ccccc2)nnc1C1CCCNC1 (centres undefined) = 0.17

---

# assay-name: SK-BR-3 cell growth inhibitors, pilot screen, 24 h, human (AID 572);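 further: compound exposure lasted between 18 and 24 h rather than exactly 24 h; 100% = carrier-treated control wells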
# applied-conditions: SK-BR-3 viability, CellTiter-Glo luminescence, at 10 µM, stronger effect = lower value
Doc: threshold 90% (exclusive). Items with viability beneath it return YES; others return NO.

Before answering, review these 5 worked examples.
# molecule, assigned-label
measured = [
    ("Cc1onc(-c2ccccc2)c1C(=O)N1CCOCC1", "NO"),
    ("CCN1CCN(c2nc3c(c(=O)n(C)c(=O)n3C)n2CCSc2ncccn2)CC1", "NO"),
    ("CCCNC(=O)C1=C(C)C(=O)OC12CCC(C)CC2 (centres undefined)", "NO"),
    ("C=C(C)C1Cc2c(C)nn(-c3nc(C)cc(C)n3)c2C1 (centres undefined)", "NO"),
    ("CCCS(=O)(=O)N1CCCC(C(=O)NC(C)c2ccc3c(c2)OCCO3)C1 (centres undefined)", "YES"),
]

Consider the additional molecule presented here.
Answer whether the molecule `Cc1ccc(-n2ncc3c(=O)n(CC(=O)NCc4ccco4)cnc32)cc1` has viability strictly less than 90%
NO
